Provenance of the data: patent US20080318255A1

biological target: human SPHK-1 (Homo sapiens); construct: expressed in transfected cells; host or cells: HEK-293 (cytoplasmic fraction); test: Phosphorylation of fluorescent labeled sphingosines by SPHK-1 ([γ-32P]ATP, TLC); type: biochemical; conditions: 20 μM substrate, 1 mM ATP, 30°, cytoplasmic fraction of HEK-293 cells overexpressing human SPHK-1; sphingosine = 1
Sequence (Q9NYA1 whole entry): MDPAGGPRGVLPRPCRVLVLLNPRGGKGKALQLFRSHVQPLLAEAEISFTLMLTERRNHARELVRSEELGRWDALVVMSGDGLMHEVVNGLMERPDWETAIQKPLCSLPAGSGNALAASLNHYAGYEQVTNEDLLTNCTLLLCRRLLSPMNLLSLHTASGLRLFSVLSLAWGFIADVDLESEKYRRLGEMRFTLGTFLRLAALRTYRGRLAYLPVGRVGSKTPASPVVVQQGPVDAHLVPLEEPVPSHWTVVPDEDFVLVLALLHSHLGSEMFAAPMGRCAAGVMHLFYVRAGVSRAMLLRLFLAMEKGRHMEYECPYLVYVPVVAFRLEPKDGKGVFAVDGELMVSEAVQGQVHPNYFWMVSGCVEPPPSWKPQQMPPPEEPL
Listed compounds paired with reported rate of phosphorylation (phosphate conversion rate) relative to sphingosine (=1), SPHK-1
outcome.measure: rate of phosphorylation (phosphate conversion rate) relative to sphingosine (=1), SPHK-1

compound: N[C@@H](CO)[C@H](O)/C=C/CCCCCCCCCCOC(=O)c1cc2ccc3cccc4ccc(c1)c2c34 [Example 4]
result.number: 0.83
//
compound: N[C@@H](CO)[C@H](O)/C=C/CCCOC(=O)CCCCCCCCCc1cc2ccc3cccc4ccc(c1)c2c34 [Example 3]
result.number: 0.024
//
compound: N[C@@H](CO)[C@H](O)/C=C/CCCOC(=O)CCCCCc1cc2ccc3cccc4ccc(c1)c2c34 [Example 2]
result.number: 0.078
//
compound: N[C@@H](CO)[C@H](O)/C=C/CCCCCCCCCCNS(=O)(=O)c1cc2ccc3cccc4ccc(c1)c2c34 [Example 6]
result.number: 0.051
//
compound: CN(C)c1cccc2c(S(=O)(=O)NCCCCCCCCCC/C=C/[C@@H](O)[C@@H](N)CO)cccc12 [Example 7]
result.number: 0.063
//
compound: N[C@@H](CO)[C@H](O)/C=C/CCCOC(=O)CCCc1cc2ccc3cccc4ccc(c1)c2c34 [Example 1]
result.number: 0.048
//
compound: N[C@@H](CO)[C@H](O)/C=C/CCCCCCCCCCNC(=O)c1cc2ccc3cccc4ccc(c1)c2c34 [Example 5]
result.number: 0.28
